Sourced from PubChem BioAssay AID1996

Each record here notes measured solubility kinetic.
ASSAY_CONDITIONS: buffer; pH 7.4; 200.0 µM
REPORTED_ENDPOINT: solubility kinetic

>>> result("N#C/C(=C\\c1ccccn1)c1ccccn1")
"> 31.1 µg/mL"
>>> result("O=C(O)CCN=CC1=C(O)CC(c2ccccc2)CC1=O (stereo not drawn)")
"> 43.1 µg/mL"
>>> result("O=C(O)c1cccc2c(/C=N/Nc3ccccn3)c[nH]c12")
"> 42 µg/mL"

---

Each record here notes measured solubility kinetic.
ASSAY_CONDITIONS: buffer; pH 7.4; 200.0 µM
REPORTED_ENDPOINT: solubility kinetic

>>> result("COc1ccccc1C(=O)NCC(=O)NNC(=O)c1cccs1")
"> 50 µg/mL"
>>> result("N=C1c2ccccc2CN1c1cccc([N+](=O)[O-])c1")
"> 38 µg/mL"
>>> result("CC1CCCN(C(=O)C2CC(=O)N(c3ccc(Cl)cc3)C2)C1 (stereo not drawn)")
"> 48.1 µg/mL"
>>> result("Cl.O=C(OCCN1CCCCC1)c1ccccc1F")
"> 43.2 µg/mL"
>>> result("COc1ccc(NC(=O)CN2CCN(Cc3ccccc3)CC2)cc1")
"> 50.9 µg/mL"
>>> result("CCOc1ccccc1C(=O)NCC(=O)N(C)Cc1ccccc1C")
"> 51.1 µg/mL"
>>> result("CCOCCn1c(N2CCCC2)nc2c1c(=O)n(C)c(=O)n2C")
"> 48.2 µg/mL"
>>> result("Cc1onc(-c2ccccc2)c1C(O)c1ccc(F)cc1 (stereo not drawn)")
"> 42.5 µg/mL"

---

Each record here notes measured solubility kinetic.
ASSAY_CONDITIONS: buffer; pH 7.4; 200.0 µM
REPORTED_ENDPOINT: solubility kinetic

>>> result("CC(NC(=O)COC(=O)c1c[nH]c2ccccc12)c1ccccc1 (stereo not given)")
"46.2 µg/mL"
>>> result("CN(Cc1ccc(N(C)C)cc1)C(=O)c1cc2ccccc2o1")
"31.5 µg/mL"
>>> result("CC(C)CN=CC1=C(O)c2ccccc2C1=O")
"29.5 µg/mL"
>>> result("Cc1ccc(SCCC(=O)Nc2nccs2)cc1")
"2.5 µg/mL"
>>> result("O=C(O)c1ccc(-c2nnc(-c3ccccc3)o2)cc1")
"> 39.9 µg/mL"

---

Each record here notes measured solubility kinetic.
ASSAY_CONDITIONS: buffer; pH 7.4; 200.0 µM
REPORTED_ENDPOINT: solubility kinetic

>>> result("Cc1ccc(C)c(NC(=S)N2CCN(S(C)(=O)=O)CC2)c1")
"> 49.1 µg/mL"
>>> result("O=C(c1ccco1)N1CCN(S(=O)(=O)c2cccc([N+](=O)[O-])c2)CC1")
"> 54.8 µg/mL"
>>> result("O=C(NCCCN1CCOCC1)c1cn(-c2ccccc2)nc1-c1ccc(F)cc1")
"> 61.3 µg/mL"
>>> result("COC(=O)c1ccc(OC(=O)c2cccnc2SC)cc1")
"< 0.6 µg/mL"
>>> result("O=C(Cc1cccs1)Nc1ccc(F)cc1")
"> 35.3 µg/mL"
>>> result("COc1ccc(CCNC(=O)CN2C(=O)NC3(CCCCC3C)C2=O)cc1 (stereo not drawn)")
"> 56 µg/mL"
>>> result("COc1ccc(NC(=O)CSC2=NCCN2)cc1.Cl")
"> 45.3 µg/mL"
>>> result("Cc1noc(COc2ccccc2OCC(N)=O)n1")
"> 39.5 µg/mL"
